The measurements presented in this section are drawn from patent US9115065B2.

Catalogue of EC50 values
system: VSV; assay: microbe, parasite or virus in culture; type: cell-based; settings: Vesicular stomatitis virus, HEK-293T, read-out: VSV (μM) (negative control)
metric: EC50

• CCC(NC(=O)NNS(=O)(=O)c1cccc2c(N(C)C)cccc12)(C(F)(F)F)C(F)(F)F = > 30 µM
• CCC(NC(=O)NNS(=O)(=O)c1ccc(Br)cc1)(C(F)(F)F)C(F)(F)F = > 30 µM
• CCC(NC(=O)NNS(=O)(=O)c1ccc2c(c1)OCCN2C)(C(F)(F)F)C(F)(F)F = > 30 µM
• CCC(NC(=O)NNS(=O)(=O)c1ccc2ccccc2c1)(C(F)(F)F)C(F)(F)F = > 20 µM
• CCC(NC(=O)NNS(=O)(=O)c1ccc(C(C)(C)C)cc1)(C(F)(F)F)C(F)(F)F = 19.7 µM
• CCC(NC(=O)NNS(=O)(=O)c1cc(OCC(F)(F)F)ccc1OCC(F)(F)F)(C(F)(F)F)C(F)(F)F = 21 µM
• CCC(NC(=O)NNS(=O)(=O)c1cc(C)cc(C)c1)(C(F)(F)F)C(F)(F)F = > 30 µM
• CCC(NC(=O)NNS(=O)(=O)c1c(C)cc(C)cc1C)(C(F)(F)F)C(F)(F)F = > 30 µM
• CCC(NC(=O)NNS(=O)(=O)c1ccc(-c2ccccc2)cc1)(C(F)(F)F)C(F)(F)F = > 20 µM
• CCC(NC(=O)NNS(=O)(=O)c1cccc2ccccc12)(C(F)(F)F)C(F)(F)F = > 30 µM
• CCC(NC(=O)NNS(=O)(=O)c1ccc(-c2csnn2)cc1)(C(F)(F)F)C(F)(F)F = > 30 µM
• CCC(NC(=O)NNS(=O)(=O)c1cc(OC)ccc1OC)(C(F)(F)F)C(F)(F)F = > 30 µM
• CCC(NC(=O)NNS(=O)(=O)c1cc(Cl)ccc1OC)(C(F)(F)F)C(F)(F)F = > 30 µM
• CCC(NC(=O)NNS(=O)(=O)c1ccc(C(C)C)cc1)(C(F)(F)F)C(F)(F)F = > 20 µM
• CCC(NC(=O)NNS(=O)(=O)c1ccccc1-c1ccccc1)(C(F)(F)F)C(F)(F)F = > 30 µM
• CCC(NC(=O)NNS(=O)(=O)c1ccc(Cl)c(Cl)c1)(C(F)(F)F)C(F)(F)F = > 30 µM
• CCC(NC(=O)NNS(=O)(=O)c1cc(Br)ccc1OC)(C(F)(F)F)C(F)(F)F = > 30 µM
